# METHOD_SUMMARY: DNA intercalators displacing acridine orange, dose response, artefact control for KSHV LANA DNA-binding inhibitor project, biochemical, fluorescence polarization, cherry-picked samples, set 2 (AID 504727)
# REPORTED_CONDITIONS: Acridine orange-DNA displacement; series mostly up to 35 µM
Calls of active or inactive are those of the source.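 Rule for the calls: active = fitted half-maximal concentration AC50 at or below ten times the highest valid tested dose, with signal falling as DNA is displaced (actives reach about 34 µM in these data); inconclusive = flat fit at moderate signal loss, or poor fit quality; inactive = the rest, including signal rising instead of falling.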
Returns: one label drawn from active, inactive

Consider the worked cases shown below.
> print(dat)
                                   compound  group.label
1  O=C(O)CCCCCn1c(SCC(=O)c2ccc(O)c(O)c2)nc2ccsc2c1=O       active
2       NNC(=S)Nc1ccc(S(=O)(=O)N2CCOCC2)cc1     inactive

Incoming: Give the logged outcome of this assay for the following compound: COC(=O)c1ccccc1-c1c2ccc(=N)cc-2oc2cc(N)ccc12
Outgoing: active

Incoming: Give the logged outcome of this assay for the following compound: COc1ccc(CC(=O)O/N=C(\N)c2ccc(OC)cc2)cc1
Outgoing: inactive

Incoming: Give the logged outcome of this assay for the following compound: CN(Cc1cnc2nc(N)nc(N)c2n1)c1ccc(C(=O)NC(CCC(=O)O)C(=O)O)cc1 (stereo not drawn)
Outgoing: inactive

Incoming: Give the logged outcome of this assay for the following compound: Nc1nc(C(F)(F)F)cc(=O)[nH]1
Outgoing: inactive

Incoming: Give the logged outcome of this assay for the following compound: O=[N+]([O-])c1cccc(CSc2nc3ccccc3[nH]2)c1
Outgoing: inactive

Incoming: Give the logged outcome of this assay for the following compound: Cc1ccc(-c2nnc(-c3ccc(NC(=O)c4ccco4)cc3)o2)cc1
Outgoing: inactive

Incoming: Give the logged outcome of this assay for the following compound: COc1cccc(NC(=O)CN(C)C(=O)c2cc3ccccc3cc2OC)c1
Outgoing: inactive

----------
# METHOD_SUMMARY: DNA intercalators displacing acridine orange, dose response, artefact control for KSHV LANA DNA-binding inhibitor project, biochemical, fluorescence polarization, cherry-picked samples, set 2 (AID 504727)
# REPORTED_CONDITIONS: Acridine orange-DNA displacement; series mostly up to 35 µM
The source made the active and inactive calls.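 Rule for the calls: active = fitted half-maximal concentration AC50 at or below ten times the highest valid tested dose, with signal falling as DNA is displaced (actives reach about 34 µM in these data); inconclusive = flat fit at moderate signal loss, or poor fit quality; inactive = the rest, including signal rising instead of falling.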
Returns: one label drawn from active, inactive

Consider the worked cases shown below.
> print(dat)
                                   compound  group.label
1  CN(c1ccccc1)S(=O)(=O)c1cccc(NS(=O)(=O)c2cccc(C(=O)O)c2)c1     inactive
2    CCC(=O)Oc1ccc2c(c1)O/C(=C\c1ccco1)C2=O     inactive
3  CN1CCc2c(sc(NC(=O)c3ccc4ccccc4c3)c2C(N)=O)C1     inactive
4    O=C(CSc1cccc2cccnc12)N/N=C/c1ccc(O)cc1     inactive

Incoming: Give the logged outcome of this assay for the following compound: Cn1c(=O)c(NCCc2ccccc2)c2c3c(cccc31)C(=O)c1ccccc1-2
Outgoing: active

Incoming: Give the logged outcome of this assay for the following compound: Cc1nn(CC(=O)c2ccc(Br)s2)c(C)c1[N+](=O)[O-]
Outgoing: inactive

Incoming: Give the logged outcome of this assay for the following compound: CCCOc1ccc(C=Nc2ccc(OC)c(S(=O)(=O)N3CCOCC3)c2)c(O)c1
Outgoing: inactive

Incoming: Give the logged outcome of this assay for the following compound: Cn1c(=O)c2c(nc(SCC(=O)NCc3ccc4c(c3)OCO4)n2Cc2ccc(Cl)cc2)n(C)c1=O
Outgoing: inactive

Incoming: Give the logged outcome of this assay for the following compound: N#C/C(=C\c1ccc(-c2ccccc2[N+](=O)[O-])o1)C(N)=O
Outgoing: inactive

Incoming: Give the logged outcome of this assay for the following compound: COc1ccccc1CNC(=O)CCS(=O)(=O)c1cccs1
Outgoing: inactive

Incoming: Give the logged outcome of this assay for the following compound: O=C(O)c1cccc(-n2cccc2/C=C2/NC(=O)N(c3ccc(Cl)cc3)C2=O)c1
Outgoing: inactive

Incoming: Give the logged outcome of this assay for the following compound: C=CCOC(=O)C1=C[C@H](c2csc3ccccc23)C[C@H](OCc2ccc(CO)cc2)O1
Outgoing: inactive

Incoming: Give the logged outcome of this assay for the following compound: Cc1noc(C)c1CSCC(=O)Nc1nc2c(F)cc(F)cc2s1
Outgoing: inactive

Incoming: Give the logged outcome of this assay for the following compound: Cc1ccc(C)c(OCC(=O)N(Cc2nnc(-c3ccccc3Cl)o2)C2CC2)c1
Outgoing: inactive

Incoming: Give the logged outcome of this assay for the following compound: Cc1ccccc1NC(=O)CN1C(=O)N/C(=C\c2cccn2-c2cccc(C(=O)O)c2)C1=O
Outgoing: inactive

Incoming: Give the logged outcome of this assay for the following compound: CCN(CC(=O)NCc1cccs1)C(=O)c1ccc(S(=O)(=O)Nc2ccccc2C)cc1
Outgoing: inactive

Incoming: Give the logged outcome of this assay for the following compound: CCOC(=O)c1ccc[n+](CC(=O)c2ccc(OC)cc2)c1
Outgoing: inactive

Incoming: Give the logged outcome of this assay for the following compound: O=C(O)c1ccccc1C1=Nc2ccc(O)cc2Oc2cc(O)ccc21
Outgoing: active

Incoming: Give the logged outcome of this assay for the following compound: COc1ccc(C(=O)OCC(=O)NC2CC2)cc1S(=O)(=O)Nc1ccc(C)cc1
Outgoing: inactive

Incoming: Give the logged outcome of this assay for the following compound: Cn1nc(-c2ccccc2)c2nc3ccccc3nc21
Outgoing: active

Incoming: Give the logged outcome of this assay for the following compound: NS(=O)(=O)c1ccc(N=Nc2c[nH]c(=O)c(O)c2)cc1
Outgoing: active
